Test system: DeltatarO mutant
experiment-notes: S. aureus survival, RN4220 and DeltatarO strains – OD600, teichoic acid synthesis inhibitors, primary screen (AID 463173)
condition-details: S. aureus RN4220 wild type/DeltatarO growth, OD600, 18 h, screened at 18.75 µg/mL (by protocol)
The campaign covered roughly 52,000 compounds. About 4,300 (8.3%) were called active. No stated cut-off is given here; in the data, active means survival mostly below about 52% (no sharp cut-off); inactive means mostly above about 56%. The sample as a whole holds a higher share of actives than the screen did.
Just give me one of these, please: true = active, false = inactive

Request: Recorded test call requested for CCc1ccccc1N1C(=O)CC(N2CCc3ccccc32)C1=O (stereo not given)
Result: false

Request: Recorded test call requested for Cn1ccc2cc(S(=O)(=O)N3CCN(C(=O)Nc4ccc(F)cc4F)CC3)ccc21
Result: false

Request: Recorded test call requested for COc1ccc(OC)c(C(=O)CC2(O)C(=O)N(Cc3ccccc3C)c3ccccc32)c1 (stereo not given)
Result: false

Request: Recorded test call requested for CCC(CC)c1nnc(NC(=O)CS(=O)(=O)Cc2ccccc2)s1
Result: false

Request: Recorded test call requested for CCc1cccc(CC)c1NC(=O)Cc1csc(C)n1
Result: true

* * *

Test system: DeltatarO mutant
experiment-notes: S. aureus survival, RN4220 and DeltatarO strains – OD600, teichoic acid synthesis inhibitors, primary screen (AID 463173)
condition-details: S. aureus RN4220 wild type/DeltatarO growth, OD600, 18 h, screened at 18.75 µg/mL (by protocol)
Screen size: about 52,000 compounds; about 4,300 (8.3%) were called active. Cut-off read from the data, not from the text of the source: active = survival mostly below about 52% (no sharp cut-off); inactive = mostly above about 56%. The sample as a whole holds a higher share of actives than the screen did.
Just give me one of these, please: active, inactive

Request: Recorded test call requested for CC1=C(C(=O)OC2CCCCCC2)C(c2ccc(Cl)cc2Cl)CC(=O)N1 (stereo not drawn)
Result: inactive

Request: Recorded test call requested for CC(=O)Nc1ccc(Nc2ncnc3c2c(-c2ccccc2)cn3-c2ccc(C)c(Cl)c2)cc1
Result: inactive

Request: Recorded test call requested for CCN(C(=O)CCc1nc(-c2ccc(C)cc2)no1)c1cc(C)ccc1C
Result: active

Request: Recorded test call requested for COc1cc(OC)c(NC(=O)C(NS(=O)(=O)c2cccc3nsnc23)c2ccccc2)cc1Cl (stereo not drawn)
Result: inactive

Request: Recorded test call requested for O=C(Nc1c(-c2ccc(F)cc2)nc2ccccn12)c1ccccc1F
Result: inactive

Request: Recorded test call requested for Cc1cc(C(=O)Nc2c(C)nc3ccccn3c2=O)ccc1[N+](=O)[O-]
Result: inactive

Request: Recorded test call requested for Cc1cccc(N(CC(=O)NCCSCc2cccc(Cl)c2)S(=O)(=O)c2ccccc2)c1C
Result: inactive

Request: Recorded test call requested for Cc1ccccc1CSCCNC(=O)CN(c1ccccc1)S(=O)(=O)N(C)C
Result: inactive

Request: Recorded test call requested for COc1cc(-c2nnc(SCC(=O)Oc3ccccc3Cl)o2)cc(OC)c1OC
Result: inactive

Request: Recorded test call requested for CN(C)S(=O)(=O)N(CC(=O)NCCSCc1ccc(Cl)cc1Cl)c1ccccc1
Result: active

Request: Recorded test call requested for CC(C)(C)OC(=O)N1CC=C2C(C#N)=C(N)C(C#N)(C#N)C(c3ccc4c(c3)OCO4)C2C1 (stereo not drawn)
Result: active

Request: Recorded test call requested for O=C(Nc1c(-c2ccccc2)nc2ccccn12)c1ccccc1F
Result: inactive

Request: Recorded test call requested for CN(C)S(=O)(=O)N(CC(=O)NCCSCc1cccc(Cl)c1)c1ccccc1
Result: inactive

Request: Recorded test call requested for Cc1ccc(C)c(CN2C(=O)c3ccccc3S(=O)(=O)c3ccc(C(=O)Nc4ccccc4C(F)(F)F)cc32)c1
Result: inactive

Request: Recorded test call requested for Cc1ccc(NC(=O)C2CCN(c3nnc(C)c4c(C)n(-c5ccccc5)nc34)CC2)cc1Cl
Result: inactive

Request: Recorded test call requested for N#Cc1c(NC(=O)C(F)(F)F)oc(-c2ccccc2)c1-c1ccccc1
Result: active

Request: Recorded test call requested for N#Cc1c(NC(=O)c2ccccc2)oc(-c2ccccc2)c1-c1ccccc1
Result: inactive

Request: Recorded test call requested for Cc1ccc(C(=O)Nc2c(-c3ccccc3)nc3ccccn23)cc1
Result: active

Request: Recorded test call requested for Cc1ccc(C)c(N2CCN(S(=O)(=O)c3c(C)nc4sccn4c3=O)CC2)c1
Result: inactive

Request: Recorded test call requested for CCN(C(=O)CSc1nc(-c2ccc(C(C)C)cc2)no1)c1cccc(C)c1
Result: inactive

Request: Recorded test call requested for Cc1ccc(C(=O)N2CCn3c4c(c5cc(C)ccc53)CCCC42)cc1 (stereo not drawn)
Result: active

Request: Recorded test call requested for CCOc1cc(C(=O)N2CCn3c4c(c5cc(C)ccc53)CCCC42)cc(OCC)c1OCC (stereo not drawn)
Result: inactive

Request: Recorded test call requested for COc1ccc(-c2noc(-c3ccc(N4CCCC4)c([N+](=O)[O-])c3)n2)cc1OC
Result: inactive

Request: Recorded test call requested for CCOc1ccc(N(CC)C(=O)CCc2nc(-c3ccccc3F)no2)cc1
Result: inactive

Request: Recorded test call requested for Cc1cccc(N(CC(=O)NCCSc2ccc(Cl)cc2)S(C)(=O)=O)c1C
Result: active

Request: Recorded test call requested for Cc1ccc(C)c(NC(=O)CCc2nc(-c3ccc(C(C)(C)C)cc3)no2)c1
Result: inactive

Request: Recorded test call requested for COc1ccc(N2CCN(S(=O)(=O)c3csc(C(N)=O)c3)CC2)cc1
Result: inactive

Request: Recorded test call requested for COc1cccc(C2C3CN(C(C)=O)CC=C3C(C#N)=C(N)C2(C#N)C#N)c1 (stereo not drawn)
Result: inactive

Request: Recorded test call requested for O=C(CSc1nc(-c2ccccc2)no1)N1CCCCC1
Result: active

Request: Recorded test call requested for CCCN(CCC)S(=O)(=O)c1ccc(C(=O)N2CCn3c4c(c5cc(C)ccc53)CCCC42)cc1 (stereo not drawn)
Result: inactive

Request: Recorded test call requested for COCCCNC(=O)N1[C@H](c2cccs2)[C@@H](C)C(=O)[C@@H](C)[C@@H]1c1cccs1
Result: inactive

Request: Recorded test call requested for COc1cccc(CNC(=O)CCc2nc(-c3ccc(C)cc3)no2)c1
Result: inactive

Request: Recorded test call requested for CCN(C(=O)CCc1nc(-c2ccc(C)cc2)no1)c1cccc(C(F)(F)F)c1
Result: active
